Each record here notes measured Ki.
assay.target: T315I mutant of human Abl (Homo sapiens, UniProt P00519, T315I)
Construct: purchased Upstate Cell Signaling Solutions (Dundee, UK)
assay.name: Mutant Abl Kinase (T315I) Activity Inhibition Assay (Upstate, radiometric)
Format: biochemical

>  <compound>
Cc1cc(Nc2cc(N3CCC(N4CCOCC4)CC3)nc(Sc3ccc(NC(=O)CC(F)(F)F)cc3)n2)[nH]n1

>  <Ki>
< 200 nM

$$$$
>  <compound>
CCC(=O)Nc1ccc(Sc2nc(Nc3cc(C)n[nH]3)cc(N3CCC(O)(C(C)(C)C)CC3)n2)cc1

>  <Ki>
200 to 500 nM

$$$$
>  <compound>
CCC(=O)Nc1ccc(Sc2nc(Nc3cc(C)n[nH]3)cc(N3CCC(F)C3)n2)cc1 (centres unmarked)

>  <Ki>
200 to 500 nM

$$$$
>  <compound>
Cc1cc(Nc2cc(N3CCC(N4CCC(F)(F)C4)CC3)nc(Sc3ccc(NC(=O)CC(F)(F)F)cc3)n2)[nH]n1

>  <Ki>
200 to 500 nM

$$$$
>  <compound>
Cc1cnc(Nc2cc(N3CC[C@@H](N(C)C)C3)nc(Sc3ccc(NC(=O)C4CC4)cc3)n2)s1

>  <Ki>
< 200 nM

$$$$
